The reported numbers originate from patent US20250074908A1.

Assay: Solubility in biologically relevant media at 37° C. (free base crystal form I, crystal form III of maleate)
Assay type: physicochemical
Details: fassgf or other biorelevant, thermodynamic from solid; SGF, FaSSIF and FeSSIF, 37° C.; read-out: solubility in the three biologically relevant media
measure name: solubility

Data request: GET /values?readout=solubility&item= Cn1c(C(=O)N2CC(F)(F)C2)cc2c1CN(c1ncc(F)c(Nc3ccc(-c4cn[nH]c4)cc3)n1)CC2 [Free base crystal form I]
Data returned: < 50 µg/mL

* * *

Assay: Solubility in biologically relevant media at 37° C. (free base crystal form I, crystal form III of maleate)
Format: physicochemical
Conditions: thermodynamic from solid; FeSSIF, 37° C., 2 h
measure name: solubility at 2 h (µg/mL)
Numbers only, in µg/mL.

Data request: Look at this compound and give its reported solubility at 2 h. Cn1c(C(=O)N2CC(F)(F)C2)cc2c1CN(c1ncc(F)c(Nc3ccc(-c4cn[nH]c4)cc3)n1)CC2 [Free base crystal form I]
Data returned: 1.79

* * *

Assay: Solubility in biologically relevant media at 37° C. (free base crystal form I, crystal form III of maleate)
Format: physicochemical
Conditions: thermodynamic from solid; FaSSIF, 37° C., 0.5 h
measure name: solubility at 0.5 h (µg/mL)
One number for each entry, in µg/mL.

Data request: I am curious: what solubility at 0.5 h value has been reported for Cn1c(C(=O)N2CC(F)(F)C2)cc2c1CN(c1ncc(F)c(Nc3ccc(-c4cn[nH]c4)cc3)n1)CC2 [Free base crystal form I] ?
Data returned: 0.29

* * *

Test: Solubility in biologically relevant media at 37° C. (free base crystal form I, crystal form III of maleate)
Type: physicochemical
Settings: pH 5.02, thermodynamic from solid; FeSSIF, 37° C., 24 h
Procedure: A) The HPLC method used for the solubility test was as follows: 15 mg of each sample was weighed and dispersed in 3.0 mL of biologically relevant medium. The dispersion was shaken on a shaker at a rotation speed of 800 rpm at 37° C. 1 mL of the dispersion was taken at 0.5 h, 2 h, and 24 h, and filtered. The filtrate was tested for solubility by Agilent HPLC 1260 series and for pH value by a pH meter. The filter cake was characterized for the crystal form by XRPD.
measure name: solubility at 24 h (µg/mL)
Answers are plain numbers, in µg/mL.

Data request: Reported solubility at 24 h, molecule Cn1c(C(=O)N2CC(F)(F)C2)cc2c1CN(c1ncc(F)c(Nc3ccc(-c4cn[nH]c4)cc3)n1)CC2 [Free base crystal form I] : ____
Data returned: 3.35

* * *

Test: Solubility in biologically relevant media at 37° C. (free base crystal form I, crystal form III of maleate)
Format: physicochemical
Details: pH 6.53, thermodynamic from solid; FaSSIF, 37° C., 24 h
measure name: solubility at 24 h
Just the number plus its unit, please.

Data request: Look up solubility at 24 h: Cn1c(C(=O)N2CC(F)(F)C2)cc2c1CN(c1ncc(F)c(Nc3ccc(-c4cn[nH]c4)cc3)n1)CC2 [Free base crystal form I]
Data returned: 0.39 µg/mL

* * *

Test: Pharmacokinetic study in rats
Type: in vivo, SD rats
Details: male, SD, rat, in vivo, po, 10 mg/kg
measure name: Cmax (ng/mL)
One number for each entry, in ng/mL.

Data request: What value of Cmax has been recorded for this entry: Cn1c(C(=O)N2CC(F)(F)C2)cc2c1CN(c1ncc(F)c(Nc3ccc(-c4cn[nH]c4)cc3)n1)CC2 [Compound I]
Data returned: 251
